Cited source: the NIST ThermoML archive (doi:10.1021/acs.jced.8b00213)

Recorded electrical conductivity, one value per entry.
test: xn = mol fraction of the nth substance listed; conditions: 298.15 K; 100 kPa; Liquid; Alternating current cell with electrodes; x1 = 0.25
metric-name: electrical conductivity (S/m)

compound: CCCC[N+](CCCC)(CCCC)Cc1ccccc1.[Cl-] [benzyltributylammonium chloride] + OCCOCCOCCO
metric-name: electrical conductivity
unit-string: S/m
measurement: 0.027
//
compound: C[N+](C)(C)Cc1ccccc1.[Cl-] [trimethylbenzylammonium chloride] + OCC(O)CO
metric-name: electrical conductivity
unit-string: S/m
measurement: 0.039
//
compound: C[N+](C)(C)Cc1ccccc1.[Cl-] [trimethylbenzylammonium chloride] + OCCOCCO
metric-name: electrical conductivity
unit-string: S/m
measurement: 0.165
//
compound: CCCC[N+](CCCC)(CCCC)Cc1ccccc1.[Cl-] [benzyltributylammonium chloride] + OCC(O)CO
metric-name: electrical conductivity
unit-string: S/m
measurement: 0.009

----------
assay: refractive index (Na D-line) (dimensionless); xn = mol fraction of the nth substance listed; conditions: 318.15 K; 100 kPa; Liquid; Standard Abbe refractometry; x1 = 0.25
Parameter refractive index: see the listing below.

molecule: CCCC[N+](CCCC)(CCCC)Cc1ccccc1.[Cl-] [benzyltributylammonium chloride] + OCCO
refractive index: 1.4886
//
molecule: CCCC[N+](CCCC)(CCCC)Cc1ccccc1.[Cl-] [benzyltributylammonium chloride] + OCC(O)CO
refractive index: 1.4992
//
molecule: C[N+](C)(C)Cc1ccccc1.[Cl-] [trimethylbenzylammonium chloride] + OCCOCCO
refractive index: 1.4855
//
molecule: C[N+](C)(C)Cc1ccccc1.[Cl-] [trimethylbenzylammonium chloride] + OCCOCCOCCO
refractive index: 1.4821

----------
Items are presented alongside their recorded mass density.
assay: xn = mol fraction of the nth substance listed; conditions: 293.15 K; 100 kPa; Liquid; Vibrating tube method; x1 = 0.25

compound: CCCC[N+](CCCC)(CCCC)Cc1ccccc1.[Cl-] [benzyltributylammonium chloride] + OCCOCCOCCO
unit-string: kg/m3
mass density: 1071.36
//
compound: CCCC[N+](CCCC)(CCCC)Cc1ccccc1.[Cl-] [benzyltributylammonium chloride] + OCCO
unit-string: kg/m3
mass density: 1039
//
compound: C[N+](C)(C)Cc1ccccc1.[Cl-] [trimethylbenzylammonium chloride] + OCCO
unit-string: kg/m3
mass density: 1103.95
//
compound: C[N+](C)(C)Cc1ccccc1.[Cl-] [trimethylbenzylammonium chloride] + OCCOCCO
unit-string: kg/m3
mass density: 1113.75

----------
molecules and their reported viscosity
assay: xn = mol fraction of the nth substance listed; settings: 293.15 K; 100 kPa; Liquid; Falling or rolling sphere viscometry; x1 = 0.25

molecule: C[N+](C)(C)Cc1ccccc1.[Cl-] [trimethylbenzylammonium chloride] + OCCOCCOCCO
viscosity [mPa·s]: 370.5
//
molecule: C[N+](C)(C)Cc1ccccc1.[Cl-] [trimethylbenzylammonium chloride] + OCCOCCO
viscosity [mPa·s]: 134.1
//
molecule: C[N+](C)(C)Cc1ccccc1.[Cl-] [trimethylbenzylammonium chloride] + OCCO
viscosity [mPa·s]: 58.2

----------
experiment: xn = mol fraction of the nth substance listed; conditions: 298.15 K; 100 kPa; Liquid; Single path-length method; x1 = 0.25
speed of sound values for the compounds below.

compound: C[N+](C)(C)Cc1ccccc1.[Cl-] [trimethylbenzylammonium chloride] + OCC(O)CO
unit-string: m/s
speed of sound: 1937.6

compound: CCCC[N+](CCCC)(CCCC)Cc1ccccc1.[Cl-] [benzyltributylammonium chloride] + OCCOCCO
unit-string: m/s
speed of sound: 1658.1

compound: C[N+](C)(C)Cc1ccccc1.[Cl-] [trimethylbenzylammonium chloride] + OCCOCCO
unit-string: m/s
speed of sound: 1742.9

compound: CCCC[N+](CCCC)(CCCC)Cc1ccccc1.[Cl-] [benzyltributylammonium chloride] + OCCOCCOCCO
unit-string: m/s
speed of sound: 1659.8

compound: CCCC[N+](CCCC)(CCCC)Cc1ccccc1.[Cl-] [benzyltributylammonium chloride] + OCC(O)CO
unit-string: m/s
speed of sound: 1805.3

compound: CCCC[N+](CCCC)(CCCC)Cc1ccccc1.[Cl-] [benzyltributylammonium chloride] + OCCO
unit-string: m/s
speed of sound: 1682.2

compound: C[N+](C)(C)Cc1ccccc1.[Cl-] [trimethylbenzylammonium chloride] + OCCO
unit-string: m/s
speed of sound: 1818

compound: C[N+](C)(C)Cc1ccccc1.[Cl-] [trimethylbenzylammonium chloride] + OCCOCCOCCO
unit-string: m/s
speed of sound: 1731.4
